- assay-info: activity coefficient (dimensionless); of the first substance listed, at infinite dilution; xn = mol fraction of the nth substance listed
- particulars: 378.15 K; 101 kPa; Liquid; Chromatography; x1 = 0
measurement-type: activity coefficient

>>> test_result("COC(C)(C)C [2-methoxy-2-methylpropane] + CCCCn1cc[n+](C)c1.COP(=O)([O-])OC")
7.48
>>> test_result("Cc1ccc(C)cc1 [1,4-dimethylbenzene] + CCCCn1cc[n+](C)c1.[Cl-]")
14
>>> test_result("CCCCCCCC [octane] + CCCCn1cc[n+](C)c1.COP(=O)([O-])OC")
44.6
>>> test_result("CCCC(C)=O [pentan-2-one] + CCCCn1cc[n+](C)c1.[Cl-]")
7.78
>>> test_result("C1CCOC1 [tetrahydrofuran] + CCCCn1cc[n+](C)c1.[Cl-]")
5.67
>>> test_result("CCC(C)(C)OC [2-methoxy-2-methylbutane] + CCCCn1cc[n+](C)c1.COP(=O)([O-])OC")
9.66
>>> test_result("CCCCCCCCC [nonane] + CCCCn1cc[n+](C)c1.CS(=O)(=O)[O-]")
229
>>> test_result("COC(C)=O [methyl ethanoate] + CCCCn1cc[n+](C)c1.CS(=O)(=O)[O-]")
3.14
>>> test_result("CC(C)OC(C)C [diisopropyl ether] + CCCCn1cc[n+](C)c1.[Cl-]")
64
>>> test_result("CCOC(C)(C)C [2-ethoxy-2-methylpropane] + CCCCn1cc[n+](C)c1.[Cl-]")
55.7
>>> test_result("C1CCCC1 [cyclopentane] + CCCCn1cc[n+](C)c1.COP(=O)([O-])OC")
8.41
>>> test_result("C1CCCCC1 [cyclohexane] + CCCCn1cc[n+](C)c1.COP(=O)([O-])OC")
11.6
>>> test_result("C1COCCO1 [1,4-dioxane] + CCCCn1cc[n+](C)c1.COP(=O)([O-])OC")
2.25
>>> test_result("CCCCCCCCCC [decane] + CCCCn1cc[n+](C)c1.[Cl-]")
580
>>> test_result("CCC(=O)OC [methyl propanoate] + CCCCn1cc[n+](C)c1.CS(=O)(=O)[O-]")
4.68
>>> test_result("C1CCCCCCC1 [cyclooctane] + CCCCn1cc[n+](C)c1.[Cl-]")
71.1
>>> test_result("CCCCCCCCC [nonane] + CCCCn1cc[n+](C)c1.COP(=O)([O-])OC")
61.5
>>> test_result("C#CCCC [1-pentyne] + CCCCn1cc[n+](C)c1.[Cl-]")
5.51
>>> test_result("C1COCCO1 [1,4-dioxane] + CCCCn1cc[n+](C)c1.CS(=O)(=O)[O-]")
2.49

* * *

- assay-info: activity coefficient (dimensionless); of the first substance listed, at infinite dilution; xn = mol fraction of the nth substance listed
- particulars: 368.15 K; 101 kPa; Liquid; Chromatography; x1 = 0
Listing: activity coefficient of selected compounds
measurement-type: activity coefficient

>>> test_result("c1ccncc1 [pyridine] + CCCCn1cc[n+](C)c1.COP(=O)([O-])OC")
1.23
>>> test_result("c1ccsc1 [thiophene] + CCCCn1cc[n+](C)c1.COP(=O)([O-])OC")
1.35
>>> test_result("CC(C)=O [acetone] + CCCCn1cc[n+](C)c1.CS(=O)(=O)[O-]")
2.12
>>> test_result("C=Cc1ccccc1 [styrene] + CCCCn1cc[n+](C)c1.CS(=O)(=O)[O-]")
3.96
>>> test_result("CCC(=O)CC [pentan-3-one] + CCCCn1cc[n+](C)c1.CS(=O)(=O)[O-]")
4.79

* * *

- assay-info: activity coefficient (dimensionless); of the first substance listed, at infinite dilution; xn = mol fraction of the nth substance listed
- particulars: 378.15 K; 101 kPa; Liquid; Chromatography; x1 = 0
Consider the reported activity coefficient of an entry and match it to a band in range 1 = under 5, range 2 = from 5 up to 10, range 3 = 10 and over

>>> answer_label("C=COC(C)=O [vinyl acetate] + CCCCn1cc[n+](C)c1.[Cl-]")
"range 2"
>>> answer_label("C#CCCCCC [1-heptyne] + CCCCn1cc[n+](C)c1.[Cl-]")
"range 3"
>>> answer_label("CCC(=O)OC [methyl propanoate] + CCCCn1cc[n+](C)c1.COP(=O)([O-])OC")
"range 1"
>>> answer_label("C1=CCCCC1 [cyclohexene] + CCCCn1cc[n+](C)c1.[Cl-]")
"range 3"
>>> answer_label("CCOCC [diethyl ether] + CCCCn1cc[n+](C)c1.CS(=O)(=O)[O-]")
"range 3"
>>> answer_label("CCCC=O [butanal] + CCCCn1cc[n+](C)c1.COP(=O)([O-])OC")
"range 1"
>>> answer_label("C1CCCC1 [cyclopentane] + CCCCn1cc[n+](C)c1.CS(=O)(=O)[O-]")
"range 3"
>>> answer_label("c1ccsc1 [thiophene] + CCCCn1cc[n+](C)c1.CS(=O)(=O)[O-]")
"range 1"
>>> answer_label("CC#N [acetonitrile] + CCCCn1cc[n+](C)c1.[Cl-]")
"range 1"
>>> answer_label("CC1CCCCC1 [methylcyclohexane] + CCCCn1cc[n+](C)c1.CS(=O)(=O)[O-]")
"range 3"
>>> answer_label("CCc1ccccc1 [ethylbenzene] + CCCCn1cc[n+](C)c1.COP(=O)([O-])OC")
"range 2"
>>> answer_label("CCC[N+](=O)[O-] [1-nitropropane] + CCCCn1cc[n+](C)c1.CS(=O)(=O)[O-]")
"range 1"
>>> answer_label("CCC(=O)CC [pentan-3-one] + CCCCn1cc[n+](C)c1.COP(=O)([O-])OC")
"range 1"
>>> answer_label("Cc1ccc(C)cc1 [1,4-dimethylbenzene] + CCCCn1cc[n+](C)c1.CS(=O)(=O)[O-]")
"range 2"
>>> answer_label("C=Cc1ccccc1 [styrene] + CCCCn1cc[n+](C)c1.[Cl-]")
"range 2"
>>> answer_label("C=CCCCC [hex-1-ene] + CCCCn1cc[n+](C)c1.COP(=O)([O-])OC")
"range 3"
>>> answer_label("CCOCC [diethyl ether] + CCCCn1cc[n+](C)c1.[Cl-]")
"range 3"
>>> answer_label("Cc1ccc(C)cc1 [1,4-dimethylbenzene] + CCCCn1cc[n+](C)c1.COP(=O)([O-])OC")
"range 2"

* * *

- assay-info: activity coefficient (dimensionless); of the first substance listed, at infinite dilution; xn = mol fraction of the nth substance listed
- particulars: 378.15 K; 101 kPa; Liquid; Chromatography; x1 = 0
Would you mind labelling by activity coefficient? At or over 5 is 1, under is 0.

>>> answer_label("C=CCCCCCC [oct-1-ene] + CCCCn1cc[n+](C)c1.COP(=O)([O-])OC")
1
>>> answer_label("C#CCCC [1-pentyne] + CCCCn1cc[n+](C)c1.CS(=O)(=O)[O-]")
1
>>> answer_label("C1CCCCC1 [cyclohexane] + CCCCn1cc[n+](C)c1.[Cl-]")
1
>>> answer_label("C=Cc1ccccc1 [styrene] + CCCCn1cc[n+](C)c1.CS(=O)(=O)[O-]")
0
>>> answer_label("C1CCCCCCC1 [cyclooctane] + CCCCn1cc[n+](C)c1.CS(=O)(=O)[O-]")
1
>>> answer_label("CCC(C)(C)OC [2-methoxy-2-methylbutane] + CCCCn1cc[n+](C)c1.CS(=O)(=O)[O-]")
1

* * *

- assay-info: activity coefficient (dimensionless); of the first substance listed, at infinite dilution; xn = mol fraction of the nth substance listed
- particulars: 378.15 K; 101 kPa; Liquid; Chromatography; x1 = 0
measurement-type: activity coefficient

>>> test_result("C1CCCC1 [cyclopentane] + CCCCn1cc[n+](C)c1.[Cl-]")
33.5
>>> test_result("CCCC=O [butanal] + CCCCn1cc[n+](C)c1.[Cl-]")
5.43
>>> test_result("C=COC(C)=O [vinyl acetate] + CCCCn1cc[n+](C)c1.COP(=O)([O-])OC")
2.99
>>> test_result("C1CCCCC1 [cyclohexane] + CCCCn1cc[n+](C)c1.CS(=O)(=O)[O-]")
33.9
>>> test_result("C1=CCCCC1 [cyclohexene] + CCCCn1cc[n+](C)c1.CS(=O)(=O)[O-]")
18.7
>>> test_result("C=Cc1ccccc1 [styrene] + CCCCn1cc[n+](C)c1.COP(=O)([O-])OC")
3.06
>>> test_result("CC(C)=O [acetone] + CCCCn1cc[n+](C)c1.COP(=O)([O-])OC")
2.02
>>> test_result("CC(C)OC(C)C [diisopropyl ether] + CCCCn1cc[n+](C)c1.CS(=O)(=O)[O-]")
40.8
>>> test_result("C=CCCCCCC [oct-1-ene] + CCCCn1cc[n+](C)c1.[Cl-]")
126
>>> test_result("CC1CCCCC1 [methylcyclohexane] + CCCCn1cc[n+](C)c1.COP(=O)([O-])OC")
16.4
>>> test_result("C=CCCCCC [1-heptene] + CCCCn1cc[n+](C)c1.CS(=O)(=O)[O-]")
58.7
>>> test_result("CCC(=O)OC [methyl propanoate] + CCCCn1cc[n+](C)c1.[Cl-]")
8.2
>>> test_result("C=CCCCCCC [oct-1-ene] + CCCCn1cc[n+](C)c1.CS(=O)(=O)[O-]")
86.5
>>> test_result("CCCC(=O)OC [methyl butanoate] + CCCCn1cc[n+](C)c1.[Cl-]")
12.6
>>> test_result("CCCOCCC [dipropyl ether] + CCCCn1cc[n+](C)c1.COP(=O)([O-])OC")
13.6
>>> test_result("CC(C)=O [acetone] + CCCCn1cc[n+](C)c1.CS(=O)(=O)[O-]")
2.22
>>> test_result("C=CCCCCCCCC [1-decene] + CCCCn1cc[n+](C)c1.CS(=O)(=O)[O-]")
182
>>> test_result("C=CCCCC [hex-1-ene] + CCCCn1cc[n+](C)c1.[Cl-]")
53.9
>>> test_result("C1CCOC1 [tetrahydrofuran] + CCCCn1cc[n+](C)c1.COP(=O)([O-])OC")
2.89
>>> test_result("CCC(=O)CC [pentan-3-one] + CCCCn1cc[n+](C)c1.[Cl-]")
7.78
>>> test_result("C1COCCO1 [1,4-dioxane] + CCCCn1cc[n+](C)c1.[Cl-]")
3.65
>>> test_result("Cc1cccc(C)c1 [1,3-dimethylbenzene] + CCCCn1cc[n+](C)c1.[Cl-]")
14.7
>>> test_result("C1=CCCCC1 [cyclohexene] + CCCCn1cc[n+](C)c1.COP(=O)([O-])OC")
7.11
>>> test_result("CCCCCCCCC [nonane] + CCCCn1cc[n+](C)c1.[Cl-]")
394
>>> test_result("CCOC(C)(C)C [2-ethoxy-2-methylpropane] + CCCCn1cc[n+](C)c1.COP(=O)([O-])OC")
12.9
>>> test_result("CCCOCCC [dipropyl ether] + CCCCn1cc[n+](C)c1.CS(=O)(=O)[O-]")
38.9
>>> test_result("C#CCCCC [1-hexyne] + CCCCn1cc[n+](C)c1.[Cl-]")
8.19
>>> test_result("COC(C)=O [methyl ethanoate] + CCCCn1cc[n+](C)c1.COP(=O)([O-])OC")
2.73
>>> test_result("C#CCCCC [1-hexyne] + CCCCn1cc[n+](C)c1.COP(=O)([O-])OC")
3.39
>>> test_result("c1ccccc1 [benzene] + CCCCn1cc[n+](C)c1.CS(=O)(=O)[O-]")
3.29
>>> test_result("C#CCCCCCC [1-octyne] + CCCCn1cc[n+](C)c1.COP(=O)([O-])OC")
6.48
>>> test_result("CCOC(C)=O [ethyl acetate] + CCCCn1cc[n+](C)c1.CS(=O)(=O)[O-]")
5
>>> test_result("COC(C)(C)C [2-methoxy-2-methylpropane] + CCCCn1cc[n+](C)c1.CS(=O)(=O)[O-]")
17.9
>>> test_result("C=CCCCCC [1-heptene] + CCCCn1cc[n+](C)c1.COP(=O)([O-])OC")
19.1
>>> test_result("C#CCCCC [1-hexyne] + CCCCn1cc[n+](C)c1.CS(=O)(=O)[O-]")
9.06
>>> test_result("Cc1ccccc1C [1,2-dimethylbenzene] + CCCCn1cc[n+](C)c1.COP(=O)([O-])OC")
5.79
>>> test_result("C#CCCC [1-pentyne] + CCCCn1cc[n+](C)c1.COP(=O)([O-])OC")
2.46
>>> test_result("CCCCCCCC [octane] + CCCCn1cc[n+](C)c1.[Cl-]")
268
